- experiment description: PDE10a perfused brain permeability study: plasma concentrations at 30 and 120 min, brain concentration at 120 min, brain/plasma ratio
- condition description: male, Sprague-Dawley, rat, brain/plasma
Where a name gives a salt, the structure may show the parent alone.
Documented Kp at 2 h across a set of molecules
measured metric: Kp at 2 h

INSERT INTO measurements (molecule, measured_metric, observed_value) VALUES
  ('Cn1nc(-c2ccc(-c3c(/C=C/c4ccc5ccccc5n4)nc4c(N5CCOCC5)ccnn34)cc2)nc1O [Cpd 74]', 'Kp at 2 h', 0.04),
  ('O=C(O)C1CCN(c2ccc(-c3c([C@H]4C[C@H](c5ccc6ccccc6n5)C4)nc4c(N5CCOCC5)ccnn34)cc2)CC1 [compound 168]', 'Kp at 2 h', 0.02),
  ('Oc1nc(-c2ccc(-c3c(C#Cc4ccc5ccccc5n4)nc4c(N5CCOCC5)ccnn34)cn2)no1 [Cpd 26]', 'Kp at 2 h', 0.26),
  ('O=C(Nc1nc2c(N3CCOCC3)ccnn2c1-c1ccc(N2CCNCC2)nc1)c1ccc2ccccc2n1 [Cpd 8, trifluoroacetic acid salt]', 'Kp at 2 h', 1.16),
  ('Oc1ncn(-c2ccc(-c3c(/C=C/c4ccc5ccccc5n4)nc4c(N5CCOCC5)ccnn34)cc2)n1 [Cpd 54, trifluoroacetic acid salt]', 'Kp at 2 h', 0),
  ('c1ccc2nc(SCc3nc4c(N5CCOCC5)ccnn4c3-c3ccc(N4CCNCC4)nc3)ccc2c1 [Cpd 6, trifluoroacetic acid salt]', 'Kp at 2 h', 0.39),
  ('O=C(O)c1ccc(-c2c(/C=C/c3ccc4c(n3)CCCC4)nc3c(N4CCOCC4)ccnn23)cc1 [Cpd 76]', 'Kp at 2 h', 0.02),
  ('NS(=O)(=O)N1CCN(c2ccc(-c3c(CSc4ccc5ccccc5n4)nc4c(N5CCOCC5)ccnn34)cn2)CC1 [Cpd 20]', 'Kp at 2 h', 0.31),
  ('O=C(O)C1CCN(c2ccc(-c3c(/C=C/c4ccc5ccccc5n4)nc4c(N5CCOCC5)ccnn34)cc2)CC1 [Cpd 100, trifluoroacetic acid salt]', 'Kp at 2 h', 0.02),
  ('C(=C\c1nc2c(N3CCOCC3)ccnn2c1-c1ccc(Sc2nnc[nH]2)nc1)/c1ccc2ccccc2n1 [Cpd 22]', 'Kp at 2 h', 0.17),
  ('O=C(O)c1ccc(-c2c(/C=C/c3ccc4ccccc4n3)nc3c(N4CCOCC4)ccnn23)cc1 [compound 40, trifluoroacetic acid salt]', 'Kp at 2 h', 0),
  ('O=C(O)CCc1ccc(-c2c(/C=C/c3ccc4ccccc4n3)nc3c(N4CCOCC4)ccnn23)cn1 [Cpd 125]', 'Kp at 2 h', 0),
  ('CC(=O)NS(=O)(=O)c1ccc(-c2c(CCc3ccc4ccccc4n3)nc3c(N4CCOCC4)ccnn23)cc1 [compound 42]', 'Kp at 2 h', 0),
  ('COc1cc(-c2c(/C=C/c3ccc4ccccc4n3)nc3c(N4CCOCC4)ccnn23)ccc1C(=O)O [compound 67]', 'Kp at 2 h', 0.02);

* * *

- experiment description: PDE10a perfused brain permeability study: plasma concentrations at 30 and 120 min, brain concentration at 120 min, brain/plasma ratio
- condition description: male, Sprague-Dawley, rat, plasma
Structures can show the parent of a compound that is named as a salt.
The following ranges of concentration at 2 h define the classes used here: low bracket (below 100 ng/mL), middle bracket (100 ng/mL to below 400 ng/mL), high bracket (400 ng/mL or more)

INSERT INTO assay_data (molecule, assigned_category) VALUES
  ('O=C(Nc1nc2c(N3CCOCC3)ccnn2c1-c1ccc(N2CCNCC2)nc1)c1ccc2ccccc2n1 [Cpd 8, trifluoroacetic acid salt]', 'low bracket'),
  ('O=C(O)c1ccc(-c2c([C@H]3C[C@H](c4ccc5ccccc5n4)C3)nc3c(N4CCOCC4)ccnn23)cc1 [compound 164, trifluoroacetic acid salt]', 'middle bracket'),
  ('CS(=O)(=O)NC(=O)c1ccc(-c2c(CCc3ccc4ccccc4n3)nc3c(N4CCOCC4)ccnn23)cc1', 'low bracket'),
  ('O=C(O)c1ccc(-c2c(CCc3ccc4ccccc4n3)nc3c(N4CCOCC4)ccnn23)cc1', 'low bracket'),
  ('O=C(O)CNc1ccc(-c2c(C#Cc3ccc4ccccc4n3)nc3c(N4CCOCC4)ccnn23)cn1 [Cpd 24, trifluoroacetic acid salt]', 'low bracket'),
  ('O=C(O)CCC(=O)Nc1ccc(-c2c(/C=C/c3ccc4ccccc4n3)nc3c(N4CCOCC4)ccnn23)cc1', 'low bracket'),
  ('CS(=O)(=O)NC(=O)c1ccc(-c2c(C#Cc3ccc4ccccc4n3)nc3c(N4CCOCC4)ccnn23)cc1', 'middle bracket'),
  ('NS(=O)(=O)N1CCN(c2ccc(-c3c(CSc4ccc5ccccc5n4)nc4c(N5CCOCC5)ccnn34)cn2)CC1', 'high bracket'),
  ('O=C(O)c1cccc(-c2c(/C=C/c3ccc4ccccc4n3)nc3c(N4CCOCC4)ccnn23)c1', 'low bracket'),
  ('CS(=O)(=O)NC(=O)c1ccc(-c2c(CCc3ccc4ccccc4n3)nc3c(N4CCOCC4)ccnn23)cn1 [Cpd 30, trifluoroacetic acid salt]', 'middle bracket'),
  ('O=C(O)c1ccc(-c2c(/C=C/c3ccc4ccccc4n3)nc3c(N4CCOCC4)ccnn23)cc1F', 'middle bracket'),
  ('OC(c1ccc(-c2c(/C=C/c3ccc4ccccc4n3)nc3c(N4CCOCC4)ccnn23)cc1)(C(F)(F)F)C(F)(F)F', 'middle bracket'),
  ('CS(=O)(=O)NC(=O)c1ccc(-c2c(/C=C/c3ccc4ccccc4n3)nc3c(N4CCOCC4)ccnn23)cn1 [Cpd 27, trifluoroacetic acid salt]', 'high bracket'),
  ('C(=C\c1nc2c(N3CCOCC3)ccnn2c1-c1ccc(Sc2nnc[nH]2)nc1)/c1ccc2ccccc2n1', 'high bracket'),
  ('O=C(O)C1CCN(c2ccc(-c3c([C@H]4C[C@H](c5ccc6ccccc6n5)C4)nc4c(N5CCOCC5)ccnn34)cc2)CC1', 'high bracket'),
  ('CS(=O)(=O)NC(=O)c1ccc(-c2c(C#Cc3ccc4ccccc4n3)nc3c(N4CCOCC4)ccnn23)cn1', 'middle bracket'),
  ('O=C(O)c1ccc(-c2c(/C=C/c3ccc4c(n3)CCCC4)nc3c(N4CCOCC4)ccnn23)cc1', 'high bracket'),
  ('Oc1nc(O)c(-c2ccc(-c3c(/C=C/c4ccc5ccccc5n4)nc4c(N5CCOCC5)ccnn34)cc2)o1', 'high bracket'),
  ('O=C(O)CCNC(=O)c1ccc(-c2c(/C=C/c3ccc4ccccc4n3)nc3c(N4CCOCC4)ccnn23)cc1', 'low bracket'),
  ('O=C(O)c1ccc(-c2c(/C=C/c3ccc4ccccc4n3)nc3c(N4CCOCC4)ccnn23)cc1 [compound 40, trifluoroacetic acid salt]', 'high bracket'),
  ('O=C(O)CCc1ccc(-c2c(/C=C/c3ccc4ccccc4n3)nc3c(N4CCOCC4)ccnn23)cn1', 'middle bracket'),
  ('c1ccc2nc(SCc3nc4c(N5CCOCC5)ccnn4c3-c3ccc(N4CCNCC4)nc3)ccc2c1 [Cpd 6, trifluoroacetic acid salt]', 'middle bracket'),
  ('CS(=O)(=O)NC(=O)c1ccc(-c2c(/C=C/c3ccc4ccccc4n3)nc3c(N4CCOCC4)ccnn23)cc1F', 'high bracket'),
  ('Cn1nc(-c2ccc(-c3c(/C=C/c4ccc5ccccc5n4)nc4c(N5CCOCC5)ccnn34)cc2)nc1O', 'high bracket'),
  ('Oc1nc(-c2ccc(-c3c(C#Cc4ccc5ccccc5n4)nc4c(N5CCOCC5)ccnn34)cn2)no1', 'middle bracket');
